meta.source: ChEMBL document CHEMBL1201862

Tested on: NCI-H460
Experiment: NCI tumour cell line growth inhibition, 48 h
The source made the active and inactive calls. Rule as the data show it: active = GI50 up to about 1.1 µM and inactive = higher.
readout name: GI50

As a guide, the following entries are already answered.
INSERT INTO results (molecule, readout_name, reported_measurement) VALUES
  ('CC1=NN(C(=O)c2ccc(Cl)cc2)C(=O)/C1=C/c1ccc(Cl)cc1', 'GI50', '> 100 µM (inactive)'),
  ('CC1=C(C(=O)NCc2ccccc2)C(c2ccccc2C)C(C(=O)NCc2ccccc2)=C(C)N1', 'GI50', '19.5 µM (inactive)'),
  ('Cc1ccc(N2C[N+](c3ccccc3)=NC(c3ccccc3)=N2)cc1', 'GI50', '54.1 µM (inactive)'),
  ('O=C(O)c1ccccc1/C=N/N=C1NCCCCN1', 'GI50', '> 100 µM (inactive)'),
  ('C=CC1(CC/C(=C\[N+](=O)[O-])c2ccc(OC)c(OC)c2)OCC(C)(C)CO1', 'GI50', '18.2 µM (inactive)'),
  ('Cc1ccc(C2=C(C#N)C(=O)N3CCN=C3S2)cc1', 'GI50', '> 100 µM (inactive)');

Just so you know, measured GI50 for CC1(C)CC[C@]2(C)CC[C@]3(C)C(=CC[C@@H]4[C@@]5(C)CCC(=O)C(C)(C)[C@@H]5[C@H](O)C[C@]43C)[C@@H]2C1 came out at 18 µM (inactive)

Documented GI50 of Cc1c2cccc-2ccc2c3ccccc3n(C(=O)c3ccc(Cl)cc3)c12 : > 89.7 µM (inactive)

Looking up O=C1/C(=C/c2ccc([N+](=O)[O-])cc2)C(=O)N(c2ccccc2)C1c1ccccc1 (centres undefined) , I see its GI50 listed as > 10 µM (inactive)

---

System: A549
Assay: NCI tumour cell line growth inhibition, 48 h
Calls of active or inactive are those of the source. Rule as the data show it: active = GI50 up to about 1.1 µM and inactive = higher.
Your answer must be one of the following: active, inactive

Look over these answered cases.
INSERT INTO assay_data (compound, assigned_label) VALUES
  ('CC(CCC(=O)O)C(=O)O (centres undefined)', 'inactive'),
  ('CC(C)C1COC(c2cccc(C3=N[C@@H](C(C)C)CO3)n2)=N1 (some centres undefined)', 'inactive'),
  ('COc1cc(CNc2nc3cc(C(F)(F)F)ccc3nc2C(=O)O)cc(OC)c1OC', 'inactive'),
  ('COC(=O)C(=O)C(CC(=O)Nc1ccc(C)cc1)C(=O)OC (centres undefined)', 'inactive'),
  ('Cc1c(Cl)ccc2c1NC(=O)C2(O)C1Cc2ccccc2C1=O (centres undefined)', 'inactive'),
  ('C=CCCc1cc(OC)ccc1CN(C)C(C)(C)CO', 'inactive'),
  ('NC(=O)N1N=C2c3ccccc3SC[C@H]2[C@@H]1c1ccccc1', 'inactive'),
  ('N#C/C(=C\c1cc(Cl)cc(Cl)c1)c1ccccn1', 'inactive');

## Input Check the results log: what was the call for Nc1cc2[nH]c(=O)c3cc(Cl)ccc3c2cc1Cl ?
## Output inactive

## Input // outcome(item) with item = O=C(NCCCCCCNC(=O)c1cccc2ccccc12)c1cccc2ccccc12
## Output inactive

## Input I would be grateful if you could indicate the recorded call for CC1(C)OC[C@@H](/C=C\CCO[Si](c2ccccc2)(c2ccccc2)C(C)(C)C)N1C(=O)c1ccccc1 .
## Output inactive

## Input Which result was noted for this compound in the test: O=C1c2ccccc2-c2cc3ccccc3c(=O)n21
## Output inactive

## Input # fetch the recorded call for Clc1ccc(C(Cc2cccc(Cl)c2)c2c(Cl)nc(N3CCNCC3)nc2Cl)cc1 (centres undefined) here
## Output inactive

## Input What call does the record list for COc1ccc(/C=C2/C[N+](C)(C)C/C(=C/c3ccc(OC)cc3)C2=O)cc1 ?
## Output inactive

## Input Could you check what this test reported for N/C(=N\N=C\c1c[nH]c2ccccc12)Nc1ccccc1 ?
## Output active

## Input Hey, what did the test say about CCc1ccc(Nc2cc(=O)[nH]c(=S)n2C)cc1 ?
## Output inactive

---

Test system: NCI-H23
Test: NCI tumour cell line growth inhibition, 48 h
Calls of active or inactive are those of the source. Cut-off read from the data, not from the text of the source: active = GI50 up to about 1.1 µM and inactive = higher.
Parameter: GI50. Scope: all listed entries.

In the examples that follow, each entry is paired with its recorded GI50.
INSERT INTO assay_data (compound, tested_target, readout_name, reported_measurement) VALUES
  ('O=C1C=CC(=O)c2c1ccc1c3ccccc3n(Cc3ccccc3)c21', 'NCI-H23', 'GI50', '19.5 µM (inactive)'),
  ('c1ccc2cc(CNCCCCNCCCNCc3ccc4ccccc4c3)ccc2c1', 'NCI-H23', 'GI50', '1.8 µM (inactive)'),
  ('CC#CCCN(CC#N)Cc1ccccc1', 'NCI-H23', 'GI50', '> 100 µM (inactive)'),
  ('CCOC(=O)N1CCC(=O)C[C@@H]1C/C=C/P1(=O)O[C@H](c2ccccc2)C(C)N1C(C)C (stereo partly specified)', 'NCI-H23', 'GI50', '> 100 µM (inactive)'),
  ('c1ccc(-c2nc3ccccc3nc2SCc2cccnc2)cc1', 'NCI-H23', 'GI50', '> 100 µM (inactive)');

Please turn your attention to the following entry.
Sure, the documented GI50 for O=C(COc1ccc(Cl)cc1Cl)N/N=C/C=C/c1ccc([N+](=O)[O-])o1 is 3.18 µM (inactive)

---

Test system: Malme-3M
Experiment: NCI tumour cell line growth inhibition, 48 h
Activity calls are given as the source filed them. Cut-off read from the data, not from the text of the source: active = GI50 up to about 1.1 µM and inactive = higher.
Outcomes you can answer with include only these: active, inactive

INSERT INTO measurements (molecule, assigned_label) VALUES
  ('COc1ccc(/C(Cl)=C(\C=O)c2ccc(OC)cc2)cc1', 'inactive'),
  ('C=CC1(CC/C(=C\[N+](=O)[O-])c2ccc(OC)c(OC)c2)OCC(C)(C)CO1', 'inactive'),
  ('CC(C)C(Sc1nc(-c2ccccc2)c(-c2ccccc2)[nH]1)C(=O)NN (configuration not stated)', 'inactive');

## Input Look up the recorded call for CNS(=O)(=O)c1ccccc1C(=N)c1ccccc1 in this test.
## Output inactive

## Input Lab log entry: c1ccc2cc3c(NC4=NCCO4)cccc3cc2c1 — outcome as called in the assay?
## Output inactive

## Input What classification did Nc1ccc2c(c1)Oc1c(F)c(F)cc3c(=O)c(C(=O)O)cn-2c13 end up with in this test?
## Output inactive

## Input Dear all, I need the recorded test outcome for CC1(C)CC(=O)C(C(=O)C(=O)NC2=C(Cl)C(=O)c3ccccc3C2=O)C(=O)C1 , thank you.
## Output inactive

## Input Record lookup: outcome of this test for ClCc1nc2ccccc2[nH]1 ?
## Output inactive

## Input Entry Nc1n[nH]c(CCCCCCCc2nnc(N)[nH]2)n1 : call = ?
## Output inactive

## Input What outcome does the record of this test show for CCOC(=O)/C(C(=O)Nc1cccc(C(F)(F)F)c1)=C(/N)N1CCCC1 ?
## Output inactive

## Input State the result this test recorded for CN(N=O)c1ccc(/C=C/c2ccnc3ccccc23)cc1 .
## Output inactive

## Input Short answer needed: outcome of this test for N/C(=N\N=C\c1c[nH]c2ccccc12)Nc1ccccc1 ?
## Output active

## Input How did this test come out for O=C(c1ccco1)C1CC(c2c(O)ccc3ccccc23)=NN1 (configuration not stated) ?
## Output inactive

## Input Per the assay record, what outcome was assigned to CC[C@]1(Cc2ccc(OC)c(OC)c2)CN(S(=O)(=O)c2ccc(C)cc2)C[C@@H]1OC(C)=O ?
## Output inactive

## Input How was CC(=O)O[C@H]1C[C@@H](OC(C)=O)[C@@](C)(O)[C@@H]2[C@@H](OC(C)=O)[C@@]3(O)[C@H](/C=C(/CO)[C@H]4O[C@H]4[C@@H](OC(C)=O)[C@@]12C)OC(=O)[C@@H]3C classified in this test?
## Output inactive

## Input Outcome logged for CCOc1ccc(NC(=O)C(=O)NO)cc1 in this assay:
## Output inactive

## Input Record lookup: outcome of this test for Oc1ccc2c(c1)CCc1c-2n(CCN2CCOCC2)c2ccc(O)cc12 ?
## Output inactive

## Input Tell me the recorded outcome of this test for Clc1ccc(C(Cc2cccc(Cl)c2)c2c(Cl)nc(N3CCNCC3)nc2Cl)cc1 (configuration not stated) .
## Output inactive

## Input Write down the call the test reported for this molecule. Item: COc1ccc(N[S+]([O-])c2ccc(-c3ccccc3)cc2)cc1 (configuration not stated)
## Output inactive

## Input Name the outcome recorded for CCOC(=O)c1c(N2CCOCC2)[nH]c(=O)c(C(c2ccc(N(C)C)cc2)c2c(O)c(C(=O)OCC)c(N3CCOCC3)[nH]c2=O)c1O in the assay.
## Output inactive

## Input Hi, sorry to bother you, what did the test record for CC(C)=C1C2CC3(C)CCC2(C)CCC13.CC1=CCC2C3(C)CCC2(C(C)C)C1C3 (configuration not stated) ?
## Output inactive

## Input Assay result, entry [O-][n+]1cc(SCc2ccccc2)ncc1SCc1ccccc1 — outcome?
## Output inactive
